Test: CREB reporter modulators under forskolin, primary screen, cell-based, PC12, CRE-LacZ reporter, forskolin-stimulated (AID 1146);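 also: PC12 cells with 6xCRE LacZ reporter stimulated by forskolin 10 µM; beta-galactosidase reporter signal reflecting CREB driven transcription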
Details: luminescence, 4.5 h, higher = more signal, called active from +8 up or from −8 down
test-readout: z-score
Provide a numeric answer; units are not to be included.

The examples below pair each entry with its known result.
O=C1NCC(=O)N2[C@@H]1C[C@@H](C(=O)O)[C@H]2c1cccc(OCCO)c1	-0.393
CCCCCN1CC=CC23O[C@@H]4/C=C\CCCOC(=O)C4[C@H]2C(=O)N(CCCO)[C@@H]3C1=O (some centres not stated)	-0.812
CCCCCN1CC=CC23O[C@@H]4/C=C\CCCOC(=O)C4[C@H]2C(=O)N(C(CO)C(C)C)[C@@H]3C1=O (some centres not stated)	0.373
O=C1O[C@H](c2ccccc2)[C@H](c2ccccc2)N2[C@H]1[C@@H](C(=O)NC[C@H](O)c1ccccc1)[C@]1(C(=O)Nc3ccccc31)[C@H]2c1ccc(OCCO)cc1	-0.499
CN1C(=O)C2C=CC(C(O)C3CC=CCC3)N(NC(=O)OC(C)(C)C)C2C1=O (configuration not stated)	0.257
O=C1O[C@H](c2ccccc2)[C@H](c2ccccc2)N2[C@H]1[C@@H](C(=O)O)[C@]1(C(=O)Nc3ccc(C#CC4=CCCCC4)cc31)[C@H]2c1ccccc1OCCO	26.1

[ask] Provide only the value of recorded z-score for `COC(=O)[C@@]1(Cc2ccccc2)[C@H]2c3cc(C(=O)N4CCCC4)n(CC4CC4)c3C[C@H]2CN1C(=O)c1ccccc1`
[reply] 0.847

---

// values below are reported composite z-score
Biological target: Neurogenic locus notch homolog protein 3 (Homo sapiens) (UniProt Q9UM47)
Sequence (Q9UM47 whole entry, looked up): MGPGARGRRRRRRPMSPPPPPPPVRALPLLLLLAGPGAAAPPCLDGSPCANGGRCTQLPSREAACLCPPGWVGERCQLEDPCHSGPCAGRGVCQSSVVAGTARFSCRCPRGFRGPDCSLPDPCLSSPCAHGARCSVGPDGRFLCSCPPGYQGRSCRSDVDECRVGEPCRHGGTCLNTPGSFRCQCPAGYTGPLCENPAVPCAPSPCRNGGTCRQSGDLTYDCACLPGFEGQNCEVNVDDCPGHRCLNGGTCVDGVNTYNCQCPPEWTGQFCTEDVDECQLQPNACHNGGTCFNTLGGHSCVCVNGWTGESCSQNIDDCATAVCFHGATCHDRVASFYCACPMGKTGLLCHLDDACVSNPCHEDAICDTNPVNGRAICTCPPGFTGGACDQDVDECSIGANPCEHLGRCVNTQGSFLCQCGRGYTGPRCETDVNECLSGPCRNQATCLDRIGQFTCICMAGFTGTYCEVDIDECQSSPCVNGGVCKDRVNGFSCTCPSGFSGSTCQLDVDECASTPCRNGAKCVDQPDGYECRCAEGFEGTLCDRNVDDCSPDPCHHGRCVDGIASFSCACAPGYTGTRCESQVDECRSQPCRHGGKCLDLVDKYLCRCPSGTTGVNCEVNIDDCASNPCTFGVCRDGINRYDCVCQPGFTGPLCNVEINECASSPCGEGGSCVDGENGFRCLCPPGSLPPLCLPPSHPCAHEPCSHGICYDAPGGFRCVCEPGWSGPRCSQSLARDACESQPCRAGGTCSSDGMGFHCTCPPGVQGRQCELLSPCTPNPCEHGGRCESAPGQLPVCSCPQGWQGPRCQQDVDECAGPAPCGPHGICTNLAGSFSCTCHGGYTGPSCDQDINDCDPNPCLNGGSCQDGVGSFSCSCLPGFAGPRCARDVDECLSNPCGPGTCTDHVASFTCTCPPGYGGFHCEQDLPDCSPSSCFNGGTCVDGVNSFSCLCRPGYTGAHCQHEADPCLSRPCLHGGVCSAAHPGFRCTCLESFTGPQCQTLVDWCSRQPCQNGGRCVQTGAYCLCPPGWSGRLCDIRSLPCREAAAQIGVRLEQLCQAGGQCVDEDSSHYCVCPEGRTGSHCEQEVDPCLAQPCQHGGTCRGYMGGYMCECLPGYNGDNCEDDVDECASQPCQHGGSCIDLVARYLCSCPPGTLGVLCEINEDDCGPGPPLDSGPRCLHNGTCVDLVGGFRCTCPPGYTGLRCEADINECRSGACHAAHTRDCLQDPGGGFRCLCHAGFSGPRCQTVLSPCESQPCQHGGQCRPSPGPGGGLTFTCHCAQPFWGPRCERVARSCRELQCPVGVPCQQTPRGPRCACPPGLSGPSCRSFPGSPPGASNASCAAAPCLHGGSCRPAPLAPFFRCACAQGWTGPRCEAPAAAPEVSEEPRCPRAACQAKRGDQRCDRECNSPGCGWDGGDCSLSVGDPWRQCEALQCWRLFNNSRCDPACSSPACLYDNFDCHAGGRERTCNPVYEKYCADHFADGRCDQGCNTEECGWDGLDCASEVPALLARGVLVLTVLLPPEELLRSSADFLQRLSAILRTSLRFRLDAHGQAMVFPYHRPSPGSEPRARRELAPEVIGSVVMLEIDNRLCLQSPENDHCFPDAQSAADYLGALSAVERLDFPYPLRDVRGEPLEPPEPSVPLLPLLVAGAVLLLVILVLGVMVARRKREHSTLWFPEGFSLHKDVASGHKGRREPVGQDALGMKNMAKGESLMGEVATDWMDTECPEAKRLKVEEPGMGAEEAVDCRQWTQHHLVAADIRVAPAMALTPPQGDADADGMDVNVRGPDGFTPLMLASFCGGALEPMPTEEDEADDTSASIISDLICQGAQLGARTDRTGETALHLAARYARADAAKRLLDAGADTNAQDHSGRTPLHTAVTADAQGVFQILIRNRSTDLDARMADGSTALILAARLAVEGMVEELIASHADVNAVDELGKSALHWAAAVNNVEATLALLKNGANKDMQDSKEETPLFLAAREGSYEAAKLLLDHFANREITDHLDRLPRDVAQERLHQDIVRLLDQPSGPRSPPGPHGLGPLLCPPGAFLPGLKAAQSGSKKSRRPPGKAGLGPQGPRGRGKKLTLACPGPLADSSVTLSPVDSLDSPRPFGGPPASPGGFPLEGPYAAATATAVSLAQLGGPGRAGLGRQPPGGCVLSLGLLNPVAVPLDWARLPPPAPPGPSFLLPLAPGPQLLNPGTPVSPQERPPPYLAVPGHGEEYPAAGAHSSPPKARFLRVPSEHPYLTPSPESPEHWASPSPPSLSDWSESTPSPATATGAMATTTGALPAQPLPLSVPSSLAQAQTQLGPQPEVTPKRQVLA
Test: NOTCH3 binders on small-molecule microarray, primary screen, biochemical, 635/667 nm fluorescence (AID 1096)
Settings: NOTCH3 binding, 635 nm fluorescence, higher = more signal
Please state the value as a number alone, without comment.

Worked cases, answers included:
C=CCN1C(=O)[C@]2(O[C@H](CCO)[C@@H]([Si](C)(C)c3ccc(OC)cc3)[C@@H]2C)c2cc(N3CCCCC3=O)ccc21	1.14
CC(C)(C)OC(=O)CC[C@]1(C(=O)NCC(O)CO)COC(c2ccc(OCCCO)cc2)=N1 (stereo partly drawn)	-0.0234

[ask] Determine from records and report composite z-score for `COc1ccc([Si](C)(C)[C@H]2[C@H](CC(=O)N3Cc4ccccc4C[C@H]3CO)O[C@@]3(C(=O)N(Cc4ccc(N5CCC5=O)cc4)c4ccccc43)[C@@H]2C)cc1`
[reply] 1.14

[ask] State its composite z-score for this compound: `Cc1ccc(S[C@]2(C(=O)NCCN3CCOCC3)CC(=O)N(Cc3ccccc3)[C@@H]2c2ccc(CO)cc2I)cc1`
[reply] -0.791

[ask] Return reported composite z-score. Input compound: O=C1C2C=CC(C(O)C3CCCCC3)N(Nc3ccc([N+](=O)[O-])cc3)C2C(=O)N1c1ccccc1 (stereo not drawn)
[reply] -0.273

[ask] Retrieve composite z-score measured for `C=C(CCCC)C(=O)CC[C@H](OC(=O)c1cccnc1)c1ccccc1OCCO` and print it.
[reply] 0.214

[ask] Fill in reported composite z-score for this entry: `Cc1ccc(S[C@]2(C(=O)NC(C)C)CC(=O)N(Cc3ccccc3Cl)[C@@H]2c2ccc(CO)cc2I)cc1`
[reply] -0.317

[ask] Let me know recorded composite z-score for `[N-]=[N+]=Nc1ccccc1[C@H]1OC(c2ccc(OCCCO)cc2)=N[C@@]1(Cc1ccccc1)C(=O)O` , thanks.
[reply] 1.11
